# System: KBM5
# protocol: Cytotoxicity against imatinib-resistant human KBM5 cells harboring Bcr-Abl T315I mutant at 0.001 to 17 uM after 72 hrs by MTS assay
# Type: functional, cell-based
The source made the active and inactive calls. The rule behind the calls is not given here.
Hello, when you answer, please use one of the following outcomes: Yes for active, No for inactive

Input line: Which result was noted for this compound in the test: `CC(C)[C@]12O[C@H]1[C@@H]1O[C@@]13[C@H]1CCC4=C(COC4=O)[C@@H]1C[C@@H]1O[C@@]13[C@@H]2OC(=O)CN1CCOCC1`
Output line: Yes

Input line: Same question for `CC(C)[C@]12O[C@H]1[C@@H]1O[C@@]13[C@H]1CCC4=C(COC4=O)[C@@H]1C[C@@H]1O[C@@]13[C@@H]2OC(=O)CNCCO` please.
Output line: Yes

Input line: Same lookup for `CC(C)[C@]12O[C@H]1[C@@H]1O[C@@]13[C@H]1CCC4=C(COC4=O)[C@@H]1C[C@@H]1O[C@@]13[C@@H]2OC(=O)CCl` , please.
Output line: Yes

Input line: Lookup `CC(C)[C@]12O[C@H]1[C@@H]1O[C@@]13[C@H]1CCC4=C(COC4=O)[C@@H]1C[C@@H]1O[C@@]13[C@@H]2OC(=O)CN1CCNCC1`
Output line: Yes

Input line: Note, next up: `CCN(CC)CC(=O)O[C@@H]1[C@@]2(C(C)C)O[C@H]2[C@@H]2O[C@@]23[C@H]2CCC4=C(COC4=O)[C@@H]2C[C@@H]2O[C@]213`
Output line: Yes

Input line: Next up: `CC(C)[C@]12O[C@H]1[C@@H]1O[C@@]13[C@H]1CCC4=C(COC4=O)[C@@H]1C[C@@H]1O[C@@]13[C@@H]2OC(=O)CN(CCO)CCO`
Output line: No

Input line: One more compound: CC(C)[C@]12O[C@H]1[C@@H]1O[C@]13[C@]1(O[C@H]1C[C@H]1C4=C(CC[C@@]13C)C(=O)OC4)[C@@H]2O [TRIPTOLIDE]
Output line: Yes

Input line: One more compound: `CC(C)[C@]12O[C@H]1[C@@H]1O[C@@]13[C@H]1CCC4=C(COC4=O)[C@@H]1C[C@@H]1O[C@@]13[C@@H]2OC(=O)CNc1ccc(Cl)cc1`
Output line: No
